IC50 by entry:
# Tested on: KG-1 cell line (FGFR 1-fusion)
# protocolSummary: Cancer cell line cell viability assay (Cell Titer-Glo), 72 hr
# Assay type: cell-based
# measurementConditions: Homo sapiens, KG-1, KG-1 cell line (FGFR1-fusion)

compound | assayEndpoint | result
C[C@@H](Oc1cc2c(-c3cnc(N4CC(C)(NCC5CC5)C4)c(C#N)c3)n[nH]c2cc1F)c1c(Cl)cncc1Cl [Example 134] | IC50 | 200 to 1000 nM
C[C@@H](Oc1ccc2[nH]nc(-c3cnc(N4CC(C)(NCC5CC5)C4)cc3F)c2c1)c1c(Cl)cncc1Cl [Example 243] | IC50 | 200 to 1000 nM
C[C@@H](Oc1cc2c(-c3cnc(N4CC(C)(N5CCOCC5)C4)c(F)c3)n[nH]c2cc1F)c1c(Cl)cncc1Cl [Example 158] | IC50 | 50 to 200 nM
Cc1ncc(Cl)c([C@@H](C)Oc2ccc3[nH]nc(-c4cnc(N5CC(C)(CS(C)(=O)=O)C5)c(F)c4)c3c2)c1Cl [Example 210] | IC50 | 200 to 1000 nM
COc1cc2[nH]nc(-c3cnc(N4CC(C)(NC[C@H](C)O)C4)c(F)c3)c2cc1O[C@H](C)c1c(Cl)cncc1Cl [Example 160] | IC50 | 0.1 to 50 nM
C[C@@H](Oc1ccc2[nH]nc(-c3ccc(N4CC(C)(NC5COC5)C4)nc3)c2c1)c1c(Cl)cncc1Cl [Example 64] | IC50 | 0.1 to 50 nM
C[C@H](O)CC1(N)CN(c2ncc(-c3n[nH]c4ccc(O[C@H](C)c5c(Cl)cncc5Cl)cc34)cc2F)C1 [Example 384] | IC50 | 50 to 200 nM
C[C@@H](Oc1ccc2[nH]nc(-c3cnc(N4CC(C)(CN(C)S(C)(=O)=O)C4)c(C#N)c3)c2c1)c1c(Cl)cncc1Cl [Example 23] | IC50 | 200 to 1000 nM
C[C@@H](Oc1ccc2[nH]nc(-c3cnc(N4CC(C)(NCCS(C)(=O)=O)C4)c(C#N)c3)c2c1)c1c(Cl)cncc1Cl [Example 325] | IC50 | 200 to 1000 nM
COc1cc2[nH]nc(-c3cnc(N4CC(CC#N)(N(C)C)C4)c(C#N)c3)c2cc1O[C@H](C)c1c(Cl)cncc1Cl [Example 352] | IC50 | 0.1 to 50 nM

Query: Which IC50 value is on record for CNC1(C)CN(c2ncc(-c3n[nH]c4cc(OC)c(O[C@H](C)c5c(Cl)cncc5Cl)cc34)cc2C#N)C1 [Example 9] ?
Reply: 0.1 to 50 nM

Query: Which IC50 value is on record for COc1cc2[nH]nc(-c3cnc(N4CC(C)(N5CCC5)C4)c(C#N)c3)c2cc1O[C@H](C)c1c(Cl)cncc1Cl [Example 26] ?
Reply: 0.1 to 50 nM

Query: Which IC50 value is on record for C[C@H]1CN(C2(C)CN(c3ccc(-c4n[nH]c5ccc(O[C@H](C)c6c(Cl)cncc6Cl)cc45)cn3)C2)CCO1 [Example 212] ?
Reply: 50 to 200 nM

Query: Which IC50 value is on record for CCNC1(C)CN(c2ncc(-c3n[nH]c4ccc(O[C@H](C)c5c(Cl)cncc5Cl)cc34)cc2F)C1 [Example 149] ?
Reply: 0.1 to 50 nM

Data origin, for the record: patent US20250368666A1
